target: HTRA1 (construct not given) (Homo sapiens (Human), UniProt Q92743 23-480, limits assumed); test: cell-based or functional assay
Sequence (Q92743 23-480 limits assumed): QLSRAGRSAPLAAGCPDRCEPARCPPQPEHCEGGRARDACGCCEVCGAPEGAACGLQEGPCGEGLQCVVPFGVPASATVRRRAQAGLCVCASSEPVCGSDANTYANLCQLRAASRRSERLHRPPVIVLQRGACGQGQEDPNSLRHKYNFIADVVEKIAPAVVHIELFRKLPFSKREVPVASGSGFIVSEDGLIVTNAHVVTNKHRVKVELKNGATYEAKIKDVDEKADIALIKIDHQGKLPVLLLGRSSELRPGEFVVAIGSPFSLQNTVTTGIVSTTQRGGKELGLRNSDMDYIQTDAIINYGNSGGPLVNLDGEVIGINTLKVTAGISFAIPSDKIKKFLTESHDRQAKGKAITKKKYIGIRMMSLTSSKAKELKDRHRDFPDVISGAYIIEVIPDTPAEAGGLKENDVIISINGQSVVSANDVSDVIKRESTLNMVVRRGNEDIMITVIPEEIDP
readout_name: IC50, HTRA1 enzyme assay

hz24F7.v2 S91Y (antibody, human IgG1, kappa, N297G, V domains shown, hz24F7.v2 with a substitution in light chain CDR3) VH: QVQLVQSGAEVKKPGASVKVSCKASGYTFTDYEMHWVRQAPGQRLEWMGAIDPETGGTAYNQKFKGRVTITADKSASTAYMELSSLRSEDTAVYYCTREGYSYEGGGYYFDYWGQGTLVTVSS VL: DIQMTQSPSSLSASVGDRVTITCSVSSSVSYMYWYQQKPGKAPKLLIYDTSNLASGVPSRFSGSGSGTDFTFTISSLQPEDIATYYCQQWYSYPTFGQGTKLEIKR ... 0.07 nM

Incoming: Name the reported IC50, HTRA1 enzyme assay value associated with the binder hz24F7.v2 S92Y (antibody, human IgG1, kappa, N297G, V domains shown, hz24F7.v2 with a substitution in light chain CDR3) VH: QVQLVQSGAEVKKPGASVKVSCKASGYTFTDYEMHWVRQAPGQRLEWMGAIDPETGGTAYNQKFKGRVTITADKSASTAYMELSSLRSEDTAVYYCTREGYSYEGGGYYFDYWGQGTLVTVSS VL: DIQMTQSPSSLSASVGDRVTITCSVSSSVSYMYWYQQKPGKAPKLLIYDTSNLASGVPSRFSGSGSGTDFTFTISSLQPEDIATYYCQQWSYYPTFGQGTKLEIKR
Outgoing: 0.097 nM
